biological target: Sodium/glucose cotransporter 1 (Homo sapiens); assay: Inhibition of human SGLT1 expressed in COS1 cells assessed as [14C]methyl-alpha-D-glucopyranoside uptake at 50 uM; assay type: cell-based; conditions: COS-1
Field: inhibition. Provide a value for each of the compounds that follow.
Numbers only here, please. The scale is %.

Query string: inhibition lookup needed for Oc1ccc2cc1Oc1ccc(cc1)CCCC[C@H](O)CC2 , thanks.
Result string: 94.2

Query string: Next: Oc1ccc2cc1Oc1ccc(cc1)CCCCCCC2
Result string: 96.3

Query string: Next entry: Oc1ccc2cc1Oc1ccc(cc1)CC[C@H](O)CCCC2
Result string: 92.7

Query string: And CC(=O)Oc1ccc2cc1Oc1ccc(cc1)CC[C@@H](OC(C)=O)CCCC2 ?
Result string: 68.8

Query string: Another compound to check: OC[C@H]1O[C@H](Oc2ccc3cc2Oc2ccc(cc2)CC[C@@H](O)CCCC3)[C@H](O)[C@@H](O)[C@@H]1O
Result string: 18.3

Query string: Then what about the compound COc1ccc2cc1Oc1ccc(cc1)CCCCC(=O)CC2 ?
Result string: 37.7

Query string: Similarly, Oc1ccc2cc1Oc1ccc(cc1)C/C=C/CCCC2 ?
Result string: 73.7

Query string: How about this compound: O=C1CCCCc2ccc(OCc3ccccc3)c(c2)Oc2ccc(cc2)CC1
Result string: 3.9

Query string: Another compound to look at: O[C@H]1CCCCc2ccc(OCc3ccccc3)c(c2)Oc2ccc(cc2)CC1
Result string: 31.4

Query string: Query CC(=O)Oc1ccc2cc1Oc1ccc(cc1)CCC(=O)CCCC2 next
Result string: 13.5

Query string: Same thing, different compound: O=C1CCc2ccc(cc2)Oc2cc(ccc2O)CCCCN1
Result string: 46.5

---

target: Sodium/glucose cotransporter 2 (Homo sapiens); test: Inhibition of human SGLT2 expressed in COS1 cells assessed as [14C]methyl-alpha-D-glucopyranoside uptake at 50 uM; type: cell-based; conditions: COS-1
Field: inhibition. Provide a value for each of the compounds that follow.

Query string: Query (compound): O[C@H]1CCCCc2ccc(OCc3ccccc3)c(c2)Oc2ccc(cc2)CC1 ; field requested: inhibition
Result string: 45.3%

Query string: What do you get for COc1ccc2cc1Oc1ccc(cc1)CCC(=O)CCCC2 ?
Result string: 53.3%

Query string: Another compound: O=C(Oc1ccc2cc1Oc1ccc(cc1)CC[C@@H](OC(=O)c1ccccc1)CCCC2)c1ccccc1
Result string: -9.7%

Query string: // next record COc1ccc2cc1Oc1ccc(cc1)CC[C@@H](O)CCCC2
Result string: 29.5%

Query string: What about O=C(Oc1ccc2cc1Oc1ccc(cc1)CC[C@@H](OC(=O)c1ccc(Cl)cc1)CCCC2)c1ccc(Cl)cc1 ?
Result string: 16.8%

Query string: Also check OC[C@H]1O[C@H](Oc2ccc3cc2Oc2ccc(cc2)CC[C@@H](O)CCCC3)[C@H](O)[C@@H](O)[C@@H]1O
Result string: 15%

Query string: // same read-out, input: Oc1ccc2cc1Oc1ccc(cc1)CC[C@H](O)CCCC2
Result string: 33.9%

Query string: Now consider CC(=O)Oc1ccc2cc1Oc1ccc(cc1)CCC(=O)CCCC2 .
Result string: 19.3%

Query string: Cool, now Oc1ccc2cc1Oc1ccc(cc1)CCCC[C@H](O)CC2
Result string: 54.2%

Query string: Entry COc1ccc2cc1Oc1ccc(cc1)CCCCC(=O)CC2 please
Result string: 65.4%
